Target: S1-Fc (SARS-CoV-2, UniProt P0DTC2 16-685)
Experiment: phage ELISA
property: ELISA fold over background (fold over background)
Please state the figure in fold over background; there is no need to write the unit.

Entry under review: 1-7 (antibody, V domains shown, also called variant 1-7) VH: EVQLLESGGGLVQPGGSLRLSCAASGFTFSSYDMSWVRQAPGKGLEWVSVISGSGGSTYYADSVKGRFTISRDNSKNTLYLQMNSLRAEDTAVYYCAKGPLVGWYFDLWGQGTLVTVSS VL: QSALTQPASVSGSPGQSITISCTGTSSDFGSYNLVSWYQQHPGKAPKLMIYEGNKRPSGVSNRFSGSKSGNTASLTISGLQAEDEADYYCCSYAGSSTFVVFGGGTKLTVL . Reported ELISA fold over background?
1.7
